Sourced from patent US20220064312A1

Molecular target: human CCR8 (human) (UniProt P51685)
Sequence (P51685 whole entry): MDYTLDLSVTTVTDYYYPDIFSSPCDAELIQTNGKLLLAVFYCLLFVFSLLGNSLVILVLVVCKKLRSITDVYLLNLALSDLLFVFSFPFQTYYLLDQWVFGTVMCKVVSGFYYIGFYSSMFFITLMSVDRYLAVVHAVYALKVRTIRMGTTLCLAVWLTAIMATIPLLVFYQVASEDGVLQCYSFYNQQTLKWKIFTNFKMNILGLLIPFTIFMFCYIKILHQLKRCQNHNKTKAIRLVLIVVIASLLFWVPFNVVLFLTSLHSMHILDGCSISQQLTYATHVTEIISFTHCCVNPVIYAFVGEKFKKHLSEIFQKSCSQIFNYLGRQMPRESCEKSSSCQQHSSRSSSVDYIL
Test: cell-based or functional assay
This listing pairs binders with measured IC50 ratio (WT IC50/mutant IC50).
// no unit, no text: just the number

{"BINDER": "h10A11 IGKV4-1/IGHV3-73 S52cT (antibody, name in Kabat numbering, V domains shown) VH: EVQLVESGGGLVQPGGSLKLSCAASGFAFNTYALYWVRQASGKGLEWVGRIRSKTNNYATYYADSVKDRFTISRDDSKNTAYLQMNSLKTEDTAVYYCTRARFYYSDYGYAMDYWGQGTLVTVSS VL: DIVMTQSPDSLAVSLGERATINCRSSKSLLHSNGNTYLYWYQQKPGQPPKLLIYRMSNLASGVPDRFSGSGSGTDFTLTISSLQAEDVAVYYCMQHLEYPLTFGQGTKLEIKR", "NUMERIC RESULT": 0.53}
{"BINDER": "h10A11 IGKV4-1/IGHV3-73 Y32F (antibody, name in Kabat numbering, V domains shown) VH: EVQLVESGGGLVQPGGSLKLSCAASGFAFNTFALYWVRQASGKGLEWVGRIRSKSNNYATYYADSVKDRFTISRDDSKNTAYLQMNSLKTEDTAVYYCTRARFYYSDYGYAMDYWGQGTLVTVSS VL: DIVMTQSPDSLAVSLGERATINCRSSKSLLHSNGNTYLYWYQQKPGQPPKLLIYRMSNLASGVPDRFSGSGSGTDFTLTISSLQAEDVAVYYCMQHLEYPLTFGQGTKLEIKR", "NUMERIC RESULT": 0.44}
{"BINDER": "h10A11 IGKV4-1/IGHV3-73 G100cA (antibody, name in Kabat numbering, V domains shown) VH: EVQLVESGGGLVQPGGSLKLSCAASGFAFNTYALYWVRQASGKGLEWVGRIRSKSNNYATYYADSVKDRFTISRDDSKNTAYLQMNSLKTEDTAVYYCTRARFYYSDYAYAMDYWGQGTLVTVSS VL: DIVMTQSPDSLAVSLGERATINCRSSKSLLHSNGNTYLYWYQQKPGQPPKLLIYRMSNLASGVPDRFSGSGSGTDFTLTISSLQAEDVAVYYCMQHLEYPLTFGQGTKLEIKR", "NUMERIC RESULT": 0.07}
{"BINDER": "h10A11 IGKV4-1/IGHV3-73 S62T (antibody, name in Kabat numbering, V domains shown) VH: EVQLVESGGGLVQPGGSLKLSCAASGFAFNTYALYWVRQASGKGLEWVGRIRSKSNNYATYYADTVKDRFTISRDDSKNTAYLQMNSLKTEDTAVYYCTRARFYYSDYGYAMDYWGQGTLVTVSS VL: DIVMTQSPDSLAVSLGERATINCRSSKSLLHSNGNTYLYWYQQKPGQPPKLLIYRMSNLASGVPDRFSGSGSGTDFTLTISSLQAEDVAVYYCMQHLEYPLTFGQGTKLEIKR", "NUMERIC RESULT": 1.6}

Here is the next item to consider.
So what does the record say about IC50 ratio (WT IC50/mutant IC50) for h10A11 IGKV4-1/IGHV3-73 Y100dF (antibody, name in Kabat numbering, V domains shown) VH: EVQLVESGGGLVQPGGSLKLSCAASGFAFNTYALYWVRQASGKGLEWVGRIRSKSNNYATYYADSVKDRFTISRDDSKNTAYLQMNSLKTEDTAVYYCTRARFYYSDYGFAMDYWGQGTLVTVSS VL: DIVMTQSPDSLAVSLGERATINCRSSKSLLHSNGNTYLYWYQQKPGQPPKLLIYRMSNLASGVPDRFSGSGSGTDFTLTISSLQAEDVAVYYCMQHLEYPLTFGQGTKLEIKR ?
0.55
